All figures here come from patent US20260049092A1.

# Tested on: P. aeruginosa ATCC27853
# assay: Bacterial susceptibility testing (MIC, broth microdilution)
# Format: cell-based
# experimentalContext: Pseudomonas aeruginosa, ATCC27853, broth microdilution, cation adjusted Mueller-Hinton Broth, 35° C., 18-24 h; read-out: P. aeruginosa ATCC27853 MIC
reportedProperty: MIC (µg/mL)

Example entries begin here.
{"molecule": "C[C@H](O)c1nccn1[C@@H](C#Cc1ccc(-c2ccc(O[C@H]3C[C@H](NCC#N)C3)cc2)cc1)CO (racemic)", "MIC [µg/mL]": 4}
{"molecule": "C[C@H](O)c1nccn1[C@@H](C#Cc1ccc(-c2ccc(O[C@H]3COC[C@@H]3O)c(F)c2F)cc1)CO (single isomer, unassigned)", "MIC [µg/mL]": 8}
{"molecule": "C[C@H](O)c1nccn1[C@@H](C#Cc1ccc(-c2ccc(NC3CN(CC#N)C3)cc2)cc1)CO (single isomer, unassigned)", "MIC [µg/mL]": 4}

P. C[C@H](O)c1nccn1[C@@H](C#Cc1ccc(-c2ccc(C3CN(CCC#N)C3)cc2)cc1)CO
Q. C[C@H](O)c1nccn1[C@@H](C#Cc1ccc(-c2ccc(OC3CN(C4(C#N)COC4)C3)cc2)cc1)CO
R. C[C@H](O)c1nccn1[C@@H](C#Cc1ccc(-c2ccc(NC3COC[C@@H]3O)cc2F)cc1)CO (single isomer, unassigned)
INPUT: Could you please sort these 3 entries by MIC from high to low? Use the labels to give the requested order.
OUTPUT: Q, P, R
(Q: 8 µg/mL, P: 4 µg/mL, R: 2 µg/mL)
